From: ChEMBL document CHEMBL4813945

# method: Acute toxicity in IG dosed rat assessed as maximum tolerated dose
# Type: organism-based
# experimental.context: in vivo, po
value.type: MTD (mg/kg)
Give the number; mg/kg is assumed, so skip it.

Query: Given `COc1cc(/C=C/c2nc(NCc3ccc(C)cc3)c3sccc3n2)cc(OC)c1OC` , state its recorded MTD.
Response: 2000

###

# test.system: CYP3A4/5 (Homo sapiens, UniProt P08684+P20815)
# method: Inhibition of CYP3A4/5 in human liver microsomes using Midazolam as substrate measured after 20 mins by LC-MS/MS analysis
# Format: ADME
# experimental.context: probe Midazolam
value.type: IC50 at 20 min

Query: Short answer please: IC50 at 20 min, CYP3A4/5 (Homo sapiens, UniProt P08684+P20815), entry `COc1cc(/C=C/c2nc(NCc3ccc(C)cc3)c3sccc3n2)cc(OC)c1OC`
Response: > 50 µM
